Listed here: items and their measured drug sensitivity score.
tested on: HCC1599; test: drug sensitivity score (DSS), CellTiter-Blue viability (DSS (AUC-based score)); higher = stronger viability inhibition; extreme values may be limits of the assay; conditions: incubation time: 72 h
Write no unit; give the number alone.

O=c1[nH]cc(F)c(=O)[nH]1 | 1.41

Exam item: Please give measured drug sensitivity score of the following entry: O=C(c1ccc(OCCN2CCCCC2)cc1)c1c(-c2ccc(O)cc2)sc2cc(O)ccc12
Marked response: 0

Exam item: Retrieve drug sensitivity score measured for COc1c(C)cnc(Cn2cnc3c(Cl)nc(N)nc32)c1C and print it.
Marked response: 8.11

---

system: CAL-148; test: normalised response (% of control), CellTox Green; higher = less cell death (100 = DMSO, 0 = benzethonium chloride kill control); settings: incubation time: 72 h
METRIC_NAME: normalised response

CCCC(CCC)C(=O)O [Valproic acid] (1000000 nM) | 95.9%

Exam item: Hello, please tell me recorded normalised response for this one: C[C@@]1(C(=O)Nc2ccc(F)nc2)CCCN1c1nc(Nc2cc(C3CC3)n[nH]2)c2cccn2n1 (1000 nM)
Marked response: 88.8%

Exam item: Supply reported normalised response belonging to this molecule: FC(F)c1nc2ccccc2n1-c1nc(N2CCOCC2)nc(N2CCOCC2)n1 [ZSTK474] (1000 nM)
Marked response: 89.5%

Exam item: Fill in normalised response for record C[C@@H]1CCN(C(=O)CC#N)C[C@@H]1N(C)c1ncnc2[nH]ccc12 [Tofacitinib] (5000 nM)
Marked response: 101%

Exam item: Consider the molecule CCOc1cc2ncc(C#N)c(Nc3ccc(OCc4ccccn4)c(Cl)c3)c2cc1NC(=O)/C=C/CN(C)C [Neratinib] (10 nM) . State its measured normalised response.
Marked response: 104%

Exam item: Query normalised response for CC(C)C[C@H](NC(=O)[C@H](Cc1ccccc1)NC(=O)c1cnccn1)B(O)O [Bortezomib] (10 nM)
Marked response: 87.2%

Exam item: Supply reported normalised response belonging to this molecule: COC(=O)C[C@](O)(CCCC(C)(C)O)C(=O)O[C@@H]1C(OC)=C[C@]23CCCN2CCc2cc4c(cc2[C@H]13)OCO4 [Omacetaxine] (10000 nM)
Marked response: 1.18%

Exam item: Fill in normalised response for record COc1ccc(C2=N[C@@H](c3ccc(Cl)cc3)[C@@H](c3ccc(Cl)cc3)N2C(=O)N2CCNC(=O)C2)c(OC(C)C)c1 [Nutlin-3] (10000 nM)
Marked response: 43.8%

---

Listed next: entries and their corresponding EC50, CellTiter-Blue viability.
tested on: Hs578T; conditions: 72 h
Provide only the numeric value, understood in nM.

Here are 3 compounds together with their reported answers.
C[C@@]1(C(=O)Nc2ccc(F)nc2)CCCN1c1nc(Nc2cc(C3CC3)n[nH]2)c2cccn2n1 | 4740
COC(=O)C[C@](O)(CCCC(C)(C)O)C(=O)O[C@@H]1C(OC)=C[C@]23CCCN2CCc2cc4c(cc2[C@H]13)OCO4 [Omacetaxine] | 44
CC(C)C[C@H](NC(=O)[C@H](Cc1ccccc1)NC(=O)c1cnccn1)B(O)O [Bortezomib] | 22.2

Turning now to a further record.
Exam item: Given the compound CCS(=O)(=O)c1cccc(-c2cc(C(=O)NC3CCN(C)CC3)c(C)c3[nH]c4ncc(C)cc4c23)c1 [TAK-901] , write its reported EC50, CellTiter-Blue viability.
Marked response: 125

---

test system: CAL-148; experiment: normalised viability (% of control), CellTiter-Blue; higher = more viable cells (about 100 = DMSO control); conditions: incubation time: 72 h
normalised viability reference
Number first, unit second: that is the form wanted.

Exam item: Answer with the recorded normalised viability for the compound listed here: C[C@@]1(C(=O)Nc2ccc(F)nc2)CCCN1c1nc(Nc2cc(C3CC3)n[nH]2)c2cccn2n1 (300 nM)
Marked response: 95.7%

Exam item: Report normalised viability, nothing else, for this compound: CCOc1cc2ncc(C#N)c(Nc3ccc(OCc4ccccn4)c(Cl)c3)c2cc1NC(=O)/C=C/CN(C)C [Neratinib] (30 nM)
Marked response: 85.9%

Exam item: # return recorded normalised viability for input COc1cc(Nc2ncc(F)c(Nc3ccc4c(n3)NC(=O)C(C)(C)O4)n2)cc(OC)c1OC [R406] (300 nM)
Marked response: 108%

Exam item: For the compound CC[C@@]1(O)C(=O)OCc2c1cc1n(c2=O)Cc2cc3ccccc3nc2-1 [Camptothecin] (150 nM) , give its measured normalised viability value.
Marked response: 12.8%

Exam item: Give normalised viability for CCCC(CCC)C(=O)O [Valproic acid] (300 nM)
Marked response: 103%

---

tested on: BT-474; experiment: normalised response (% of control), CellTox Green; higher = less cell death (100 = DMSO, 0 = benzethonium chloride kill control); settings: incubation time: 72 h
METRIC_NAME: normalised response (%)
Hi! Could you send only the number? It should be in %, unit omitted.

Consider the following illustrative entries.
COC1=C2C[C@@H](C)C[C@H](OC)[C@H](O)[C@@H](C)/C=C(\C)[C@H](OC(N)=O)[C@@H](OC)/C=C\C=C(/C)C(=O)NC(=CC1=O)C2=O [Geldanamycin] (1000 nM) | 95
Nc1nccc(-c2c(-c3ccc(F)cc3)ncn2C2CCCCC2)n1 (10000 nM) | 103
COc1cccc2c1C(=O)c1c(O)c3c(c(O)c1C2=O)C[C@@](O)(C(C)=O)C[C@@H]3O[C@H]1C[C@H](N)[C@H](O)[C@H](C)O1 [Daunorubicin] (100 nM) | 99.5
CC(C)(C)c1cc(NC(=O)Nc2ccc(-c3cn4c(n3)sc3cc(OCCN5CCOCC5)ccc34)cc2)no1 [Quizartinib] (100 nM) | 100

Let us move to another entry and its normalised response.
Exam item: Return the recorded normalised response value; entry: COC(=O)C[C@](O)(CCCC(C)(C)O)C(=O)O[C@@H]1C(OC)=C[C@]23CCCN2CCc2cc4c(cc2[C@H]13)OCO4 [Omacetaxine] (1000 nM)
Marked response: 93.7

---

test system: HCC1937; assay: normalised viability (% of control), CellTiter-Blue; higher = more viable cells (about 100 = DMSO control); conditions: 100 nM; incubation time: 72 h
METRIC_NAME: normalised viability (%)
Reply numerically in %, unit not repeated.

Cn1cnc2c(F)c(Nc3ccc(Br)cc3F)c(C(=O)NOCCO)cc21 | 94.8
Cn1c(=O)c(F)c(Nc2ccc(I)cc2F)c2c(=O)n(C[C@@H](O)CO)cnc21 | 104
COc1cccc2c1C(=O)c1c(O)c3c(c(O)c1C2=O)C[C@@](O)(C(C)=O)C[C@@H]3O[C@H]1C[C@H](N)[C@H](O)[C@H](C)O1 | 34.2

Exam item: Provide normalised viability value for the following molecule: CCOc1cc2ncc(C#N)c(Nc3ccc(OCc4ccccn4)c(Cl)c3)c2cc1NC(=O)/C=C/CN(C)C
Marked response: 99.5

Exam item: Fill in normalised viability for record CC(C)C[C@H](NC(=O)[C@H](Cc1ccccc1)NC(=O)c1cnccn1)B(O)O
Marked response: 8.79

---

The reader will find reported drug sensitivity score values listed item by item below.
test system: MDA-MB-231; test: drug sensitivity score (DSS), CellTox Green (DSS (AUC-based score)); higher = stronger drug effect (viability inhibition or cytotoxicity); extreme values may be limits of the assay; settings: incubation time: 72 h
Give a plain numeric answer without units written out.

CC(=O)O[C@H]1C(=O)[C@@]2(C)[C@H]([C@H](OC(=O)c3ccccc3)[C@]3(O)C[C@H](OC(=O)[C@H](O)[C@@H](NC(=O)c4ccccc4)c4ccccc4)C(C)=C1C3(C)C)[C@]1(OC(C)=O)CO[C@@H]1C[C@@H]2O [Paclitaxel] | 25.5
CS(=O)(=O)OCCCCOS(C)(=O)=O [Busulfan] | 0
C[C@@H]1CCN(C(=O)CC#N)C[C@@H]1N(C)c1ncnc2[nH]ccc12 [Tofacitinib] | 0
COC1=C2C[C@@H](C)C[C@H](OC)[C@H](O)[C@@H](C)/C=C(\C)[C@H](OC(N)=O)[C@@H](OC)/C=C\C=C(/C)C(=O)NC(=CC1=O)C2=O [Geldanamycin] | 4.3
CC(C)C[C@H](NC(=O)[C@H](Cc1ccccc1)NC(=O)c1cnccn1)B(O)O [Bortezomib] | 22.4
CCS(=O)(=O)c1cccc(-c2cc(C(=O)NC3CCN(C)CC3)c(C)c3[nH]c4ncc(C)cc4c23)c1 [TAK-901] | 3.45
C[C@@]1(C(=O)Nc2ccc(F)nc2)CCCN1c1nc(Nc2cc(C3CC3)n[nH]2)c2cccn2n1 | 6.52

Let us move to another entry and its drug sensitivity score.
Exam item: Determine from records and report drug sensitivity score for CCOc1cc2ncc(C#N)c(Nc3ccc(OCc4ccccn4)c(Cl)c3)c2cc1NC(=O)/C=C/CN(C)C [Neratinib]
Marked response: 4.21

// data source = the supplement of paper PMC4862054
